Test system: RPMI-8226 leukemia
Assay summary: NCI-60 one-dose screen, 48 h (100 = growth as untreated, 0 = no growth, -100 = all killed)
Condition notes: 10 µM unless noted
This is part of a sample that, as a whole, favours compounds with a hit. Of some 83,000 tested, about 20% had one in any assay.
Test readout: growth (%)
State just the number; it will be interpreted in %.

# query: growth of entry CC1CCC(C)N(C)C1 (stereo not given) 89.7

# query: growth of entry `Cn1ccc(Nc2nccc(Oc3ccc(C(=O)Nc4cccc(F)c4)c(Cl)c3)n2)c1` 107

# query: growth of entry `O=C1c2c(c3c4ccccc4n(CCCCCCBr)c3c3[nH]c4ccccc4c23)C(=O)N1O` 1.01

# query: growth of entry `COC(=O)c1cccc2c1N(C)c1c(cccc1C(=O)OC)CC2` 90.5

# query: growth of entry `Cc1ccc(S(=O)(=O)c2nc(-c3ccccc3)oc2S(C)(=O)=O)cc1` 8.94

# query: growth of entry `COc1cc2c(cc1O)CCN1C[C@@H](CC(C)C)[C@@H](O)C[C@@H]21` 92.5

# query: growth of entry `Nc1cccc(-c2nc3sccn3c2-c2ccnc(NCCCNS(=O)(=O)c3cccc4ccccc34)n2)c1` 8.33

# query: growth of entry `CC(C)C1=CC2=C(C=O)C[C@@H]3[C@](C)(CCC[C@@]3(C)C(=O)OCC#CCN3CCCC3)[C@H]2CC1` 33.8

# query: growth of entry O=c1[nH]c2ccc(Br)cc2c2c1C(c1ccc(Cl)cc1)c1c(ncn3nc(-c4ccco4)nc13)O2 (stereo not given) 58.4

# query: growth of entry `O=C(Nc1ccncc1)C(=O)c1cn(S(=O)(=O)c2ccc(Br)cc2)c2ccccc12` 35

# query: growth of entry `C/C(=N/NC(=S)Nc1ccccc1)c1nc2ccc(Cl)cc2[nH]1` 5.52

# query: growth of entry COc1cc(C2C3=C(COC3=O)Nc3cc4c(cc32)CCC4)cc2c1OCO2 (stereo not given) 23.2

# query: growth of entry CCCCCCCCCCCCNC(=O)[C@H]1CSC(c2ccsc2)N1 (stereo not given in full) 34.3

# query: growth of entry `CC(C)c1ccc2occ(C=C3C(=O)NC(=O)NC3=O)c(=O)c2c1` 74.8

# query: growth of entry CCN(CC)CCC(CNc1c2ccc(Cl)cc2nc2ccc(OC)cc12)c1ccccc1 (stereo not given) -23.6

# query: growth of entry `Cc1cc(N/N=C/c2nc(-c3ccc(Br)cc3)oc2C)c2cc(Cl)ccc2n1` -9.52

# query: growth of entry `CC(C)(C)n1cc(-c2ccnc(NCCCNS(=O)(=O)c3ccc(Br)cc3)c2)c(-c2cccc(O)c2)n1` -6

# query: growth of entry `COc1cc(/C(C#N)=C/c2ccc3c(c2OC)OCO3)cc2c1OCO2` 32.3

# query: growth of entry `COc1cc2c(cc1OCCCCCn1c3ccccc3c3ccccc31)N=C[C@@H]1CCCN1C2=O` -39.2

# query: growth of entry `CCOC(=O)c1c(/N=C2\SC(=O)/C(=C\C(=O)OC)N2NC)sc2c1CCN(C(=O)OCC)C2` 95.3

---

Test system: HOP-92 NSCLC
Assay summary: NCI-60 one-dose screen, 48 h (100 = growth as untreated, 0 = no growth, -100 = all killed)
Condition notes: 10 µM unless noted
Compounds without any hit were thinned out: in the full panel of roughly 83,000, 20% have a hit. Activity calls are given as the source filed them. Rule for the calls: active = growth percent below 10; inactive = the rest.
For each of the compounds below, state its growth.

# query: growth of entry `O=C1c2c(c3c4ccccc4n(CCCCCCBr)c3c3[nH]c4ccccc4c23)C(=O)N1O` -13.6% (active)

# query: growth of entry `Cc1ccc(C(=O)C2=Cc3cc4ccccc4n3Cc3cnnn32)cc1` 86% (inactive)

# query: growth of entry `CCOc1cc2c(Cl)ncnc2c(OCC)c1OCC` 86.9% (inactive)

# query: growth of entry `Cc1nn(-c2ccc([N+](=O)[O-])cc2)c2ncnc(NCCc3ccccc3)c12` 91.3% (inactive)

# query: growth of entry `Clc1cccc(-c2cc(-c3ccc4c(c3)OCCO4)[nH]n2)c1` 55.4% [25 µM] (inactive)

# query: growth of entry COc1ccc(C2NN=C3c4ccccc4CCC32)cc1 (stereo not given) 67.5% (inactive)

# query: growth of entry `Cn1c(=O)cc(NC(=O)CN2CCN(c3cc4c(cc3F)c(=O)c(C(=O)O)cn4C3CC3)CC2)[nH]c1=O` 99.8% (inactive)

# query: growth of entry `O=C(CN1CCN(c2cc3c(cc2F)c(=O)c(C(=O)N/N=C/c2ccccc2O)cn3C2CC2)CC1)N/N=C\c1ccccc1O` 52% (inactive)

# query: growth of entry `N/C(=N\S(=O)(=O)c1ccccc1)Nc1nc2ccccc2s1` 76.2% (inactive)

# query: growth of entry `COc1cc2c(=O)n(C3CCCCCC3)c3c4cc[nH]c4ncc3c2cc1OC` 59.1% (inactive)
